B1: TPR 5TU (parent)
chain: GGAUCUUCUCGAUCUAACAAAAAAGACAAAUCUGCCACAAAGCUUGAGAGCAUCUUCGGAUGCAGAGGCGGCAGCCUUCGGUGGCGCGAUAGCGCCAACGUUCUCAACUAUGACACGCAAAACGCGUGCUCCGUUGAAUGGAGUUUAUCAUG

# Variants of: B1
# EXPERIMENT_SUMMARY: polymerase ribozyme fitness, log enrichment relative to wild type (log ratio); higher = more active; in vitro selection for triplet polymerase activity
Variants at the floor of the assay were thinned out.
ENDPOINT_NAME: polymerase ribozyme fitness (log ratio)

MUTATION	ASSAY_RESULT
A47G G81C G92C C95A A142G	-2.95
C5A A60G	0.956
A52U C75U A147U	-2.82
A49U U82G	-0.129
U61G C93A	-4.13
U53G U56A G94C A115C C123G	-3.89
U31G C95U	0.463
A91G A121U	-3.01
A3U C57A	-0.997
C51U U53A C96G G124U A147U	-3.84
A41G G94U C114U A150G	-3.98
A73G U134G	-2.2
A26C C32G C54U C87G C95U	-3.91
U15G A40G C96U A97G G141A	-3.18
A20U C57U	-2.23
A40C G84A A97U	-2.32
G48C G143U	-2.25
G50A C95G	-3.01
G50A G86U	-3.78
